# assay-system: T1, Human PD-L1-Fc (Homo sapiens, UniProt Q9NZQ7)
# T1 construct: Antigen in Octet IgG KD Human PD-L1-Fc (M) Avid
# T1 sequence (Q9NZQ7 19-239 limits assumed): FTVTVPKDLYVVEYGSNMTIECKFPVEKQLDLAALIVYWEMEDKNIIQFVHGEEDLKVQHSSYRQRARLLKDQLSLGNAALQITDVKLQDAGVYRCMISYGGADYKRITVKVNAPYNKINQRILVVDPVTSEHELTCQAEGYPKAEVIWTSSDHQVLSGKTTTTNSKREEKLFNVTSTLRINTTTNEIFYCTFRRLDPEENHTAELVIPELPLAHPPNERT
# assay-info: Octet, IgG KD, avid format, human PD-L1-Fc
pKd: −log10 of the molar value.
quantity: pKd

binder	quantity	reported-measurement
ADI-38002 (antibody, human IgG1, kappa, V domains shown, Human IgG1 (GASDIE); Some in vivo work used a mouse IgG2a form; also called Ab-38002; test antibody 38002) VH: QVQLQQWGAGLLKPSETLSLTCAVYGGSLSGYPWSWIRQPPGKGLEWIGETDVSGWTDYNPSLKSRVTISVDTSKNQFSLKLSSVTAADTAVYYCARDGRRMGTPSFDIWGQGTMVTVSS VL: DIQMTQSPSSVSASVGDRVTITCRASQDINSFLAWYQQKPGKAPKLLIYAASSLNSGVPSRFSGSGSGTDFTLTISSLQPEDFATYYCQKSVYFPPTFGGGTKVEIKR	pKd	8.89
